pIC50: −log10 of the molar value.
pIC50 values for Tyrosine-protein kinase receptor UFO (Homo sapiens, UniProt P30530) compiled from several publications are listed below.

Past entries and their recorded results:
{"columns": ["Compound", "pIC50"],
 "data": [
  ["COC[C@H](C)Nc1ncc2c(-c3ccnc(F)c3)cc([C@H]3CC[C@H](O)CC3)n2n1", "≥ 7.00"],
  ["CCCC(C)Nc1ncc2c(O[C@H]3C[C@H]4CC[C@@H](C3)O4)ncc([C@H]3CC[C@H](O)CC3)c2n1 (stereo partly shown)", "6.00 to 7.00"],
  ["CCC(C)Nc1ncc2c(C)cc(C3CCC(O)CC3)n2n1 (stereo not shown)", "5.00 to 6.00"]
]}

Summary line: "CC[C@H](C)Nc1ncc2c(-c3cncc(S(C)(=O)=O)c3)cc([C@H]3CC[C@@H](O)CC3)n2n1" , Tyrosine-protein kinase receptor UFO (Homo sapiens, UniProt P30530), reported pIC50 = 6.00 to 7.00

Summary line: "CNc1ncc2c(n1)N1CCN=C1C(c1cc(NS(=O)(=O)Cc3ccccc3)c(F)cc1C)=C2" , Tyrosine-protein kinase receptor UFO (Homo sapiens, UniProt P30530), reported pIC50 = < 5.00

Summary line: "CNC(=O)c1ccc(-c2cc([C@H]3CC[C@H](O)CC3)n3nc(N[C@@H](C)COC)ncc23)cn1" , Tyrosine-protein kinase receptor UFO (Homo sapiens, UniProt P30530), reported pIC50 = ≥ 7.00

Summary line: "COC[C@H](C)Nc1ncc2c(-c3cnn(C[C@@H]4CCO4)c3)cc([C@H]3CC[C@H](O)CC3)n2n1" , Tyrosine-protein kinase receptor UFO (Homo sapiens, UniProt P30530), reported pIC50 = ≥ 7.00
